Source: PubChem BioAssay (NCATS)

test system: HaCat; assay: Cytotoxic Profiling of Annotated Libraries Using Quantitative High-Throughput Screening (AID 1296008); conditions: Five cell lines viability, CellTiter-Glo ATP luminescence, 48-72 h; stronger effect = lower value; also: % is scaled to controls: 0 for no effect and ±100 for the full control effect; nearly all actives have a fitted effect of over 60% in size
Inconclusive results are not listed. Active and inactive are the calls of the source. Calls follow the shape of the dose curve; as a rule, active = well fitted inhibition curve with a large enough effect; inconclusive = small, poorly fitted or top-dose-only effect; inactive = flat fitted curve, though single readings scatter.
parameter.measured: max response

query: State recorded max response with HaCat, entry "CC1(C)OC[C@H](NC(=O)Nc2ccc(Br)cc2Br)[C@H](c2ccccc2)O1" , no comment.
result: -5.94% (inactive)

query: Write down measured max response (HaCat) for this compound. "COc1cc(/C=C2\CCCN([C@@H](C)c3ccc(F)cc3)C2=O)ccc1-n1cnc(C)c1"
result: 3.5% (inactive)

query: # return max response for "Cc1nnc(C[C@@H]2C=C(c3ccc(Cl)cc3)c3ccccc3-n3c(C)nnc32)o1" , test system: HaCat
result: -1.46% (inactive)

query: Give HaCat max response for the following compound: COC1CC(=O)C23C(=O)NC(CC(C)C)C2C(C)C(C)=CC3/C=C(\C)CCCC1O (configuration not stated)
result: 3.61% (inactive)

query: # return max response for CC1(C)CC[C@]2(C(=O)O)CC[C@]3(C)C(=CCC4[C@@]5(C)C[C@@H](O)[C@H](O)[C@@](C)(CO)C5CC[C@]43C)[C@@H]2[C@@H]1O (some centres not stated) , test system: HaCat
result: -17.5% (inactive)

query: Fill: max response (HaCat) for this compound CC1=C(C(=O)OC2CCCCC2)C(c2ccc([N+](=O)[O-])cc2)C2=C(CC(C)(C)CC2=O)N1 (configuration not stated)
result: -9.38% (inactive)

query: Fill in: max response on HaCat, entry "O=C(NCCN1CCN(c2cccc3c2OCCO3)CC1)c1ccc(F)cc1"
result: -12.9% (inactive)

query: Tell me max response of "CCOC(=O)C1(CCOc2ccccc2)CCN(Cc2ccc(O)c(Cl)c2)CC1" when tested on HaCat.
result: 0.37% (inactive)

query: Fetch value of max response on HaCat for CC(O)C(C)n1ncn(-c2ccc(N3CCN(c4ccc(OCC5COC(Cn6cncn6)(c6ccc(Cl)cc6Cl)O5)cc4)CC3)cc2)c1=O (configuration not stated) .
result: -3.2% (inactive)

query: Tell me max response of "CC[C@H](C(=O)Nc1ccccc1N1CCCC1)c1ccccc1" when tested on HaCat.
result: -11.1% (inactive)

query: Write down measured max response (HaCat) for this compound. "N#Cc1cc(C2=Nc3ccc(Br)cc3NC(=O)C2)ccn1"
result: 4.97% (inactive)

query: GET max response | system: HaCat | item: "COc1ccc(N2CCN(C(=O)c3cc4c(s3)-c3ccccc3S(=O)(=O)C4)CC2)cc1"
result: 2.45% (inactive)

query: Report value only: max response, HaCat, "Cn1c(=O)c2c(ncn2Cc2ccc(C(C)(C)C)cc2)n(C)c1=O"
result: -22.1% (inactive)

query: Answer briefly: max response recorded on HaCat for "CC(C)CCNC(=O)[C@H](CC(C)C)NC(=O)[C@H]1O[C@@H]1C(=O)O"
result: -18.1% (inactive)

query: Answer briefly: max response recorded on HaCat for CC(C)(Cc1ccccc1)NCC(O)c1ccc(O)c(NS(C)(=O)=O)c1 (configuration not stated)
result: 2.45% (inactive)

query: Please tell me the measured max response for CC(=O)N[C@H]1[C@H](O[C@H]2CC[C@@]3(C)C(CC[C@]4(C)C3CC=C3C5CC(C)(C)CC[C@]5(C(=O)O)C(O)C[C@]34C)C2(C)C)O[C@H](CO[C@@H]2O[C@H](C)[C@H](O)[C@H](O)[C@H]2O[C@@H]2OC[C@@H](O)[C@H](O)[C@H]2O)[C@@H](O)[C@@H]1O (some centres not stated) ; system: HaCat.
result: -18.2% (inactive)

query: Under HaCat: report max response of "COc1ccc2cc3c(NC(=O)c4ccco4)nn(C)c3nc2c1" .
result: -26.7% (inactive)

----------
tested on: Es-2; assay: Primary qHTS to identify gynecologic anti-cancer compounds using libraries of approved drugs and bioactive compounds (AID 1345084); settings: Gynecologic cancer cell panel viability, ATPlite luminescence, 48 h; series mostly up to 57.5 µM; also: nearly all actives have a fitted effect of over 55% in size
Records with an inconclusive call do not appear. Activity calls are given as the source filed them. The call rests on the fitted dose curve; in most records, active means well fitted cell-killing curve with a large enough effect; inconclusive means small, poorly fitted or top-dose-only effect, or effect the other way; inactive means flat fitted curve, though single readings scatter.
Log the outcome using a class from active, inactive

query: How was CC(C)(F)CC(NC(c1ccc(-c2ccc(S(C)(=O)=O)cc2)cc1)C(F)(F)F)C(=O)NC1(C#N)CC1 (stereo not drawn) classified in this test?
result: inactive

query: Field: outcome | Entry: "CN(C)S(=O)(=O)c1ccc(NC(=S)N2CCC(C(O)(c3ccccc3)c3ccccc3)CC2)cc1"
result: inactive

query: Recorded test call requested for "c1cc(NC2CCNCC2)nc(-c2cnc3ccccn23)c1"
result: active

query: In this assay, the call recorded for CC(=O)O[C@H]1CC2C(COC(=O)CC(C)C)=CO[C@@H](OC(=O)CC(C)C)C2[C@]12CO2 (stereo partly drawn) was what?
result: inactive

query: Outcome logged for Cc1ccccc1C(C(=O)NC1CCCCC1)N(C(=O)Cn1cnc2ccccc21)c1cccc(F)c1 (stereo not drawn) in this assay:
result: inactive

query: Name the outcome recorded for "C=C(C)C(=O)O[C@H]1[C@H]2C(=C)C(=O)O[C@@H]2C[C@@H](C)[C@@H]2O[C@@H]2C(=O)[C@](C)(O)[C@@H]1OC(=O)C(=C)C" in the assay.
result: active

query: Answer briefly: the call reported for "COc1ccc(C2(N(C)C(=O)c3ccc(NC(=O)c4ccco4)cc3)CCOCC2)cc1" in this assay.
result: inactive

query: Outcome? "O[C@@](Cc1ncc(CC2(C(F)(F)F)CC2)[nH]1)(c1ccc(-n2cccn2)cc1)C(F)(F)F"
result: inactive

query: Any idea what this test logged for "Cc1ccc(NC(=O)c2ccc(CN3CCNCC3)cc2)cc1Nc1nccc(-c2cccnc2)n1" ?
result: active

query: Please let me know the test result on file for "C=CC(=O)Nc1cc(-n2c(=O)ccc3cnc4ccc(-c5ccc(NS(C)(=O)=O)cc5)cc4c32)ccc1C" .
result: inactive

query: Could you please tell me the result logged for "C=C[C@H](/C=C\c1ccc(O)cc1)c1ccc(O)cc1" in this assay?
result: inactive

query: Which outcome was entered for the compound "COc1ccc(C#Cc2ccc(C(=O)N3CCC[C@@H](O)C3)c(F)c2)cc1" in this test?
result: active

query: Write down the call the test reported for this compound. Item: "C=CC(=O)Nc1ccc(CN2C(=O)N(c3cc(OC)cc(OC)c3)Cc3cnc(Nc4ccc(N5CCN(C)CC5)cc4)nc32)cc1"
result: inactive

query: I would be grateful if you could indicate the recorded call for "COc1cccc(CN(C(=O)CC(C)(C)C)[C@H]2C[C@H](C(=O)N3CCNCC3)N(Cc3ccc4c(c3)OCO4)C2)c1" .
result: inactive

query: Would you mind telling me which call this test gave "Fc1ccc(-n2cc(CCCCN3CCC4(CC3)OCc3ccccc34)c3ccccc32)cc1" ?
result: inactive

query: Dear colleague, could you share the recorded outcome for Cc1cn2cc(C(=O)N(C)CCO)cc(NC3CCOc4cccc(C)c43)c2n1 (stereo not drawn) when you have a moment?
result: inactive

query: Outcome? "Cc1c[nH]c2ncnc(N3CCC(CN)(C(=O)Nc4cccc(OC(=O)N(C)C)c4)CC3)c12"
result: inactive

query: GET /call?item= "Cc1nc(Nc2cnn(C3CCNCC3)c2)nc2c1N(C)C(=O)c1cc3ccccc3cc1N2C" returns the recorded outcome of this test.
result: inactive

----------
test system: Es-2; assay: Primary qHTS to identify gynecologic anti-cancer compounds using libraries of approved drugs and bioactive compounds (AID 1345084); settings: Gynecologic cancer cell panel viability, ATPlite luminescence, 48 h; series mostly up to 57.5 µM; also: nearly all actives have a fitted effect of over 55% in size
Results filed as inconclusive are left out. Active and inactive are the calls of the source. The call rests on the fitted dose curve; in most records, active means well fitted cell-killing curve with a large enough effect; inconclusive means small, poorly fitted or top-dose-only effect, or effect the other way; inactive means flat fitted curve, though single readings scatter. *1 amine or outer side, *2 acyl side, *3 side chain or, on linkers, in order; H or OH if unused. Where a SMILES comes first, the peptide text is derived from it. Bridges are numbered along the chain shown (N, C = ends). [ ]: non-standard residue; d: D form. The star is where a group is joined. pTerphenylCO(4''-OnC5H11) = CCCCCOc1ccc(-c2ccc(-c3ccc(C(=O)*)cc3)cc2)cc1; Orn(4R-OH,5R-OH) = O=C([C@H](C[C@@H](O)[C@@H](O)N[*:3])N[*:1])[*:2]; hTyr(3S-OH,4S-OH) = N[C@H](C(=O)O)[C@H](O)[C@@H](O)c1ccc(O)cc1; Pro(3S-OH,4S-Me) = C[C@H]1CN[C@H](C(=O)O)[C@H]1O; Hyp = O=C(O)[C@@H]1C[C@@H](O)CN1
Reply using exactly one outcome from active, inactive

query: Any idea what this test logged for "O=C(Nc1nnc(-c2ccc3c(c2)OCCO3)o1)C1CCCCC1" ?
result: inactive

query: Hello, I am checking results. What call was entered for "CC(C)c1cc(-c2ccc(F)c3ccccc23)nc(N)n1" ?
result: inactive

query: Give the logged outcome of this assay for the following compound: "C[C@@H](N[C@H]1CCCC[C@@H]1NC(=O)c1ccc(Cl)cc1)c1cccc2ccccc12"
result: inactive

query: Kindly provide the recorded test outcome for the following compound: C#CC(=O)N(c1ccc(OC)cc1OC)C(C(=O)NCC(=O)OCC)c1cccs1 (stereo unspecified)
result: active

query: Could you kindly confirm the outcome this assay logged for "Nc1nc2c(c(N3CC[C@@H](N)C3)n1)CCCc1ccccc1-2" ?
result: inactive

query: Returns: the outcome recorded for C=C(C(=O)OC[C@H]1O[C@@H](OC(=O)/C=C/c2ccccc2)[C@H](O)[C@@H](O)[C@@H]1O)C(O)CO (stereo partly specified) in this assay.
result: inactive

query: Query: recorded result category for C=C1C(=O)OC2/C=C(\CO)CC/C=C(\C=O)C(O)C(OC(=O)C(C)CC)C12 (stereo unspecified) in this test
result: inactive

query: State the result this test recorded for O=C(Nc1ccc(-c2ccnc(Nc3ccc(N4CCOCC4)cc3)n2)cc1)C1CCCN1 (stereo unspecified) .
result: inactive

query: Status in this test for CCCCCOc1ccc(-c2ccc(-c3ccc(C(=O)N[C@H]4C[C@@H](O)[C@@H](O)NC(=O)[C@@H]5[C@@H](O)[C@@H](C)CN5C(=O)[C@H]([C@@H](C)O)NC(=O)[C@H]([C@H](O)[C@@H](O)c5ccc(O)cc5)NC(=O)[C@@H]5C[C@@H](O)CN5C(=O)[C@H]([C@@H](C)O)NC4=O)cc3)cc2)cc1 ({pTerphenylCO(4''-OnC5H11)}-[Orn(4R-OH,5R-OH)]T[Hyp][hTyr(3S-OH,4S-OH)]T[Pro(3S-OH,4S-Me)]; lactam 1-C) ?
result: inactive

query: Recorded test call requested for "O=C(Nc1cc(C(F)(F)F)ccc1N1CCCCC1)c1ccncc1"
result: inactive

query: Test call, this compound: "Clc1cccc(COc2cncc(N3CCNCC3)n2)c1"
result: inactive

query: Hello, I am checking results. What call was entered for "O=C(Nc1ccnc(NC(=O)C2CC2)c1)c1c(Cl)cccc1Cl" ?
result: active

query: Outcome logged for "C[C@]12CC[C@@H]3c4ccc(O)c(O)c4CC[C@H]3[C@@H]1CCC2=O" in this assay:
result: inactive

query: Could you kindly confirm the outcome this assay logged for "COc1ccc2cc3c(NC(=O)c4ccco4)nn(C)c3nc2c1" ?
result: inactive

query: Fill in: this test's call for "CC[C@@H]1C[C@]1(NC(=O)[C@@H]1C[C@@H]2CN1C(=O)[C@H](C(C)(C)C)NC(=O)OCC(C)(C)CCCCc1cccc3c1CN(C3)C(=O)O2)C(=O)NS(=O)(=O)C1CC1" is ___
result: inactive

query: What outcome does the record of this test show for CC(=O)O[C@@H]1CC[C@@]2(C)C(CC[C@]3(C)C2[C@H](O)C=C2[C@H]4[C@@H](C)[C@H](C)CC[C@]4(C)CC[C@]23C)[C@@]1(C)C(=O)O (stereo partly specified) ?
result: inactive
